The reported numbers originate from the RNAGym collection of RNA variant scans (doi:10.7554/elife.90254).

Exercise: state measured self-cleavage for each of the variants provided.
B1: LINE1-full (parent)
chain: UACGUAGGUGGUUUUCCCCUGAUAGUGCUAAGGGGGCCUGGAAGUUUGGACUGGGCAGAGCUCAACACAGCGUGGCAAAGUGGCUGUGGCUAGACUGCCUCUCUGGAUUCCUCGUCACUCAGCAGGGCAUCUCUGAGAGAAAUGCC

# Variants of: B1
# TEST PROTOCOL: self-cleavage, relative activity (ratio to wild type); higher = more cleavage; in vitro, sequencing; the parent is a self-cleaving ribozyme
One number for each entry.

Observe how each entry below is paired with its result.
>>> result_number("U26A G55A")
0.25
>>> result_number("U112C U132C")
1.28
>>> result_number("A64G U109C")
0.2
>>> result_number("U13A U109A")
0.28

Give one value of self-cleavage per listed variant.
1. A69G C99G
2. A57C U91C
3. U5A U73C
4. A57G A64G
5. U47C C131U
6. C56U U85C

1: 0; 2: 0; 3: 1.41; 4: 0.3; 5: 1.91; 6: 0.07
